Biological target: human RORγ (Homo sapiens)
Construct: human RORγ, from Ser253 to Lys518; expressed in transfected cells; host or cells: CHO cells (Chinese hamster ovary), transient co-transfection with pG5-Luc
Sequence (P51449 253-518): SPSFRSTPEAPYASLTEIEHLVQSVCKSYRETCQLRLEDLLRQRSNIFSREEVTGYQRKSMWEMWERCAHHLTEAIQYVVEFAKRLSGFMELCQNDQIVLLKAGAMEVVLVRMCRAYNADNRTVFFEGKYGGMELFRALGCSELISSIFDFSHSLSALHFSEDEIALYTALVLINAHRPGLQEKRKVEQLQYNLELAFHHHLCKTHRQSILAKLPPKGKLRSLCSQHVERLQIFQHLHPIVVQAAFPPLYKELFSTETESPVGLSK
Assay: In vitro assay of inhibitory effect against RORγ transcriptional activity (GAL4-hRORγ LBD luciferase reporter gene assay in CHO cells)
Assay type: cell-based
Conditions: GAL4-hRORγ LBD luciferase reporter, CHO cells; read-out: LUC EC50 hRORγ
METRIC NAME: pEC50
The value called pEC50 is obtained by taking minus log10 of the concentration in mol/L.

The cases that follow already have their pEC50 on record.
[
  {
    "MOLECULE": "CC(C)C1=CN(CCC(=O)O)C(=O)N[C@@]1(C)c1ccc(C2CC(C)(C)C2)c(Cl)c1 [Example 298]",
    "ASSAYED TARGET": "human RORγ (Homo sapiens)",
    "pEC50": 7.66
  },
  {
    "MOLECULE": "CC(C)(C)CCc1ccc([C@]2(C)NC(=O)N(c3ccc(C(=O)O)cc3)C=C2C2CC(F)(F)C2)cc1C(F)(F)F [Example 342]",
    "ASSAYED TARGET": "human RORγ (Homo sapiens)",
    "pEC50": 7.37
  },
  {
    "MOLECULE": "CC(C)C1=CN(CCC(=O)O)C(=O)N[C@@]1(C)c1ccc(CCC(C)(C)F)c(Cl)c1 [Example 294]",
    "ASSAYED TARGET": "human RORγ (Homo sapiens)",
    "pEC50": 7.17
  }
]

# input Give its pEC50 value. Item: COCCC1=CN(CCC(=O)O)C(=O)N[C@@]1(C)c1ccc(CC2CCCCC2)c(Cl)c1 [Example 335]
# output 7.59

====

# key: entry, value: EC50
Target: mouse RORγ (Mus musculus)
Construct: mouse RORγ, from Ile251 to Lys516; expressed in transfected cells; host or cells: CHO cells (Chinese hamster ovary), transient co-transfection with pG5-Luc
Sequence (P51450 251-516): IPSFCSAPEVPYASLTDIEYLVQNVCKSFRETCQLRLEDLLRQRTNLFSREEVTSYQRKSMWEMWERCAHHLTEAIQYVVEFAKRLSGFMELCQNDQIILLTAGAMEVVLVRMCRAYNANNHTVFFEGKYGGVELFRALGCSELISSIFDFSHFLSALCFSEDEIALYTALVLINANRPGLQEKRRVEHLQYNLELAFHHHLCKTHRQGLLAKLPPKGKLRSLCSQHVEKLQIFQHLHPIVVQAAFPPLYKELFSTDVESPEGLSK
Assay: In vitro assay of inhibitory effect against RORγ transcriptional activity (GAL4-mRORγ LBD luciferase reporter gene assay in CHO cells)
Type: cell-based
Conditions: GAL4-mRORγ LBD / pG5-Luc in CHO cells, 2 days incubation
Numeric only. Scale: µM

[
  {
    "COMPOUND": "CC(C)C1=CN(CCC(=O)O)C(=O)N[C@@]1(C)c1ccc(CCC2CC(C)(C)C2)c(Cl)c1 [Example 142]",
    "EC50 [µM]": 0.049
  },
  {
    "COMPOUND": "CC(C)C1=CN(CCC(=O)O)C(=O)N[C@@]1(C)c1ccc(CC[Si](C)(C)C)c(Cl)c1 [Example 158]",
    "EC50 [µM]": 0.023
  }
]

Turning to the following compound.
# input # returns recorded EC50 (system: mouse RORγ (Mus musculus)) for CC(C)C1=CN(CCC2(C(=O)O)CC2)C(=O)N[C@@]1(C)c1ccc(CCC(C)(C)C)c(Cl)c1 [Example 72]
# output 0.017

Values were extracted from patent US10196363B2.
